The reader will find reported pIC50 values listed item by item below.
system: DU145 prostate cancer cells; assay: Cell Titer Glo proliferation assay in DU145; assay type: cell-based, human; details: 72 h, Mean ± SEM, n ≥ 3, read-out: IC50 values in prostate cancer cell lines, DU145
pIC50: −log10 of the molar value.
EXPERIMENTAL READOUT: pIC50

{"COMPOUND": "CCCCCCCCc1ccc(C2CCNC2CO)cc1 (stereo not drawn) [Compound 7]", "EXPERIMENTAL READOUT": "pIC50", "OPERATOR SYMBOL": "=", "ENDPOINT VALUE": 5.28}
{"COMPOUND": "CCCCCCCCc1ccc([C@@H]2CC(=O)N[C@@H]2CO)cc1", "EXPERIMENTAL READOUT": "pIC50", "OPERATOR SYMBOL": "<", "ENDPOINT VALUE": 4.70}
{"COMPOUND": "CCCCCCCCc1ccc(C2CCNC2CO)cc1 (stereo not drawn) [Compound 8]", "EXPERIMENTAL READOUT": "pIC50", "OPERATOR SYMBOL": "=", "ENDPOINT VALUE": 5.27}
{"COMPOUND": "CCCCCCCCc1ccc([C@H]2C[C@H](CO)N[C@H]2CO)cc1", "EXPERIMENTAL READOUT": "pIC50", "OPERATOR SYMBOL": "=", "ENDPOINT VALUE": 5.14}
{"COMPOUND": "CCCCCCCCc1ccc([C@@H]2CCN[C@H]2CO)cc1.Cl", "EXPERIMENTAL READOUT": "pIC50", "OPERATOR SYMBOL": "=", "ENDPOINT VALUE": 5.43}
{"COMPOUND": "CCCCCCCCc1ccc([C@H]2CCN[C@@H]2C)cc1", "EXPERIMENTAL READOUT": "pIC50", "OPERATOR SYMBOL": "=", "ENDPOINT VALUE": 5.29}

----------
system: PP2A; assay: PP2A phosphatase activity; assay type: biochemical, murine; conditions: PP2A immunoprecipitated from FL5.12 cell lysates, phosphopeptide dephosphorylation

{"COMPOUND": "CCCCCCCCCCCCC/C=C/[C@@H](O)[C@H](CO)NC(C)=O [Compound 109, C2-ceramide, reference compound]", "PP2A activation": "activating PP2A"}
{"COMPOUND": "CCCCCCCCc1ccc([C@H]2CCN[C@@H]2CO)cc1.Cl [Compound 5]", "PP2A activation": "activating PP2A"}
{"COMPOUND": "CCCCCCCCc1ccc(CCC(N)(CO)CO)cc1.Cl [FTY720, reference compound]", "PP2A activation": "activating PP2A"}

----------
system: DU145 prostate cancer cells; experiment: Cell Titer Glo proliferation assay in DU145; assay type: cell-based, human; conditions: 72 h, Mean ± SEM, n ≥ 3, read-out: IC50 values in prostate cancer cell lines, DU145
pIC50: −log10 of the molar value.

{"COMPOUND": "CCCCCCCCc1ccc([C@@H]2CCN[C@H]2COC)cc1.Cl [Compound 14]", "TEST TARGET": "DU145 prostate cancer cells", "OPERATOR SYMBOL": "=", "pIC50": 5.25}
{"COMPOUND": "CCCCCCCCc1ccc([C@@H]2C[C@@H](CO)N[C@@H]2CO)cc1 [Compound 2]", "TEST TARGET": "DU145 prostate cancer cells", "OPERATOR SYMBOL": "=", "pIC50": 5.24}
{"COMPOUND": "CCCCCCCCc1ccc([C@H]2CC(=O)N[C@H]2CO)cc1 [Compound 10]", "TEST TARGET": "DU145 prostate cancer cells", "OPERATOR SYMBOL": "<", "pIC50": 4.70}
{"COMPOUND": "CCCCCCCCc1ccc([C@@H]2CCN[C@H]2C)cc1.Cl [Compound 12]", "TEST TARGET": "DU145 prostate cancer cells", "OPERATOR SYMBOL": "=", "pIC50": 5.30}
{"COMPOUND": "CCCCCCCCc1ccc([C@H]2CCN[C@@H]2COC)cc1.Cl [Compound 15]", "TEST TARGET": "DU145 prostate cancer cells", "OPERATOR SYMBOL": "=", "pIC50": 5.23}

----------
Biological target: S1P receptor 4 (Homo sapiens)
Construct: expressed in transfected cells
Sequence (O95977 whole entry): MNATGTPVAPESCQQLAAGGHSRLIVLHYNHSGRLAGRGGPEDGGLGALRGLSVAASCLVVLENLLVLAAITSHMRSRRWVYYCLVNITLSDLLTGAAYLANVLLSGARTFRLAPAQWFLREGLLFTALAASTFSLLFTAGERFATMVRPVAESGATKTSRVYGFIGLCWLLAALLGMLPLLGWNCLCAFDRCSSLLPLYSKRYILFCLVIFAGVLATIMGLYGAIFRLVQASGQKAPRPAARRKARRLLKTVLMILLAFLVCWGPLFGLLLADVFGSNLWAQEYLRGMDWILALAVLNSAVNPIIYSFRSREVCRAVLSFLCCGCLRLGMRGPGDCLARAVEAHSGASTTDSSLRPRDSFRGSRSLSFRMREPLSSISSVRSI
Experiment: S1P receptor activation in CHO cells, S1P4
Type: cell-based
Conditions: CHO cells over-expressing human S1P4
Method: Phosphorylation may have effects on S1P receptor activity that could cause bradycardia. Bradycardia, the dose-limiting toxicity that prevents the use of FTY720 in cancer patients, stems from FTY720-P's actions on S1P receptors 1 and 3. […] Because compound 5 could be phosphorylated, the activity of compound 5 and its phosphate 5-P (FIG. 28) on S1P receptors was evaluated (FIG. 32). […]

{"SMILES STRING": "CCCCCCCCc1ccc([C@@H]2CCN[C@H]2C)cc1.Cl", "TEST TARGET": "S1P receptor 4 (Homo sapiens)", "activation of S1P receptor 4": "not able to activate"}
{"SMILES STRING": "CCCCCCCCc1ccc([C@@H]2CCN[C@H]2CO)cc1.Cl", "TEST TARGET": "S1P receptor 4 (Homo sapiens)", "activation of S1P receptor 4": "failed to activate"}
{"SMILES STRING": "CCCCCCCCc1ccc([C@@H]2CCN[C@H]2COC)cc1.Cl", "TEST TARGET": "S1P receptor 4 (Homo sapiens)", "activation of S1P receptor 4": "not able to activate"}
{"SMILES STRING": "CCCCCCCCc1ccc([C@H]2CCN[C@@H]2CO)cc1.Cl", "TEST TARGET": "S1P receptor 4 (Homo sapiens)", "activation of S1P receptor 4": "failed to activate"}
{"SMILES STRING": "CCCCCCCCc1ccc([C@H]2CCN[C@@H]2COP(=O)(O)O)cc1", "TEST TARGET": "S1P receptor 4 (Homo sapiens)", "activation of S1P receptor 4": "failed to activate"}

----------
tested on: murine hematopoietic cell line FL5.12; experiment: Viability of FL5.12 cells by vital dye exclusion; format: cell-based; settings: Mus musculus; FL5.12 cells, 48 h, vital dye exclusion; n ≥3; read-out: IC50 (μM) [95% CI]

{"COMPOUND": "CCCCCCCCCCCCCCC[C@@H](O)[C@@H](N)CO [Compound 107, sphinganine, reference compound]", "UNITS": "µM", "IC50": 3.5}
{"COMPOUND": "CCCCCCCCCCCCC/C=C/[C@@H](O)[C@@H](N)CO [Compound 106, sphingosine, reference compound]", "UNITS": "µM", "IC50": 3.6}
{"COMPOUND": "CCCCCCCCc1ccc([C@H]2CCN[C@@H]2CO)cc1.Cl", "UNITS": "µM", "IC50": 1.9}
{"COMPOUND": "CCCCCCCCc1ccc(CCC(N)(CO)CO)cc1.Cl [FTY720, hydrochloride, reference compound]", "UNITS": "µM", "IC50": 2.4}

----------
system: Breast (MDA-MB-231) cancer cell line; assay: IC50 in cancer cell lines (Table 3), breast; type: cell-based, human; settings: Homo sapiens, MDA-MB-231; Mean ± SEM, n ≥ 3

{"COMPOUND": "CCCCCCCCc1ccc(CCC(N)(CO)CO)cc1.Cl [FTY720, hydrochloride, reference compound]", "IC50, µM": 4}
{"COMPOUND": "CCCCCCCCc1ccc([C@H]2CCN[C@@H]2CO)cc1.Cl", "IC50, µM": 2.1}

----------
system: CD98 (4F2hc, SLC3A2); test: Surface CD98 nutrient transporter down-regulation by flow cytometry; format: cell-based, murine; settings: FL5.12 cells, surface CD98 at 3 h, flow cytometry; mean ± SEM, n ≥3
Rule: % CD98 down-regulation under 50% gives not satisfied, otherwise satisfied.

{"COMPOUND": "CCCCCCCCc1ccc(COC2CC(CO)N(C(=N)N)C2)cc1 (stereo not shown) [Compound 132]", "CATEGORY LABEL": "not satisfied"}
{"COMPOUND": "CCCCCCCCc1ccc(COC2CNC(CO)C2)cc1 (stereo not shown) [Compound 102]", "CATEGORY LABEL": "satisfied"}
{"COMPOUND": "CCCCCCC=Cc1ccc(C2CCN(C(C)=O)C2CO)cc1 (stereo not shown)", "CATEGORY LABEL": "not satisfied"}
{"COMPOUND": "CCCCCCc1ccc(COC2CNC(CO)C2)cc1 (stereo not shown)", "CATEGORY LABEL": "not satisfied"}
{"COMPOUND": "CCCCCCCCCCCCC/C=C/[C@@H](O)[C@@H](N)CO [Compound 106, sphingosine, reference compound]", "CATEGORY LABEL": "not satisfied"}
{"COMPOUND": "CCCCCCCCc1ccc(CCC(N)(CO)CO)cc1.Cl [FTY720, reference compound]", "CATEGORY LABEL": "satisfied"}
{"COMPOUND": "CCCCCCC=Cc1ccc(C2CCNC2CO)cc1 (stereo not shown)", "CATEGORY LABEL": "satisfied"}
{"COMPOUND": "CCCCCCCCCCCCc1ccc(COC2CNC(CO)C2)cc1 (stereo not shown) [Compound 121]", "CATEGORY LABEL": "not satisfied"}
{"COMPOUND": "CCCCCCCCc1ccc(COC2CNC(CO)C2)cc1 (stereo not shown) [Compound 103]", "CATEGORY LABEL": "not satisfied"}
{"COMPOUND": "CCCCCCCCCCCCC/C=C/[C@@H](O)[C@H](CO)N(C)C [Compound 108, dimethylsphingosine, reference compound]", "CATEGORY LABEL": "satisfied"}
{"COMPOUND": "CCCCCCC=Cc1ccc(COC2CNC(CO)C2)cc1 (stereo not shown) [Compound 119]", "CATEGORY LABEL": "not satisfied"}
{"COMPOUND": "CCCCCCC=Cc1ccc(COC2CNC(CO)C2)cc1 (stereo not shown) [Compound 113]", "CATEGORY LABEL": "satisfied"}
{"COMPOUND": "CCCCC=Cc1ccc(COC2CNC(CO)C2)cc1 (stereo not shown) [Compound 112]", "CATEGORY LABEL": "not satisfied"}
{"COMPOUND": "CCCCCCCCCCCCCCc1ccc(COC2CNC(CO)C2)cc1 (stereo not shown) [Compound 123]", "CATEGORY LABEL": "not satisfied"}
{"COMPOUND": "CCCCCCCCCCCCCCC[C@@H](O)[C@@H](N)CO [Compound 107, sphinganine, reference compound]", "CATEGORY LABEL": "not satisfied"}
{"COMPOUND": "CCCCCCC=Cc1ccc(COC2CC(CO)N(C)C2)cc1 (stereo not shown)", "CATEGORY LABEL": "not satisfied"}
{"COMPOUND": "CCCCCCCCCCCCCCc1ccc(COC2CNC(CO)C2)cc1 (stereo not shown) [Compound 116]", "CATEGORY LABEL": "not satisfied"}
{"COMPOUND": "CCCCCCCCCCc1ccc(COC2CNC(CO)C2)cc1 (stereo not shown)", "CATEGORY LABEL": "not satisfied"}
{"COMPOUND": "CCCCCCCCc1ccc([C@H]2CCN(C(C)=O)[C@@H]2CO)cc1", "CATEGORY LABEL": "not satisfied"}
